B1: Azoarcus group I ribozyme (parent)
chain: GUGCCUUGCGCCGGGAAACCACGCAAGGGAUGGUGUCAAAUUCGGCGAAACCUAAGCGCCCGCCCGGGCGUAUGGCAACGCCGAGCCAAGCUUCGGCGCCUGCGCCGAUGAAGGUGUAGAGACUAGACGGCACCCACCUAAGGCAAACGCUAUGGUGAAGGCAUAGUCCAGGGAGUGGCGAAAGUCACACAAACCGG

variants of: B1; test: reverse-splicing fitness (ratio to wild type); higher = more active; in vitro selection; Mg2+ level not given

{"var": "C82A A120C C150U", "reverse-splicing fitness": 0.0789}
{"var": "A120U A145U C150G C169G U176A", "reverse-splicing fitness": 0.00507}
{"var": "C82U A120U C169A U176G", "reverse-splicing fitness": 0.00126}
{"var": "C82G A111U A120U A145U C150G U176G", "reverse-splicing fitness": 0.00246}
{"var": "C82A A120U A145U C169U", "reverse-splicing fitness": 0.0055}
{"var": "A111C A120G A145U C150A U176C", "reverse-splicing fitness": 0.0176}
{"var": "C82G A111U A120C A145C C169G", "reverse-splicing fitness": 0.00986}
{"var": "C82G A111C A120C A145C C150G U176A", "reverse-splicing fitness": 0.00528}
{"var": "C82A A111U A120U A145U C150G C169U U176G", "reverse-splicing fitness": 0.0027}
{"var": "C82A A111C A120G A145U C150A C169A U176C", "reverse-splicing fitness": 0.0113}
{"var": "C82A A111U A120U A145G C150A C169G", "reverse-splicing fitness": 0.00618}
{"var": "C82U A120C C150G C169G U176A", "reverse-splicing fitness": 0.00705}
{"var": "A120C C150A C169G", "reverse-splicing fitness": 0.00864}
{"var": "C82U A111C A120G U176A", "reverse-splicing fitness": 0.0155}
{"var": "C82G A111U A145G C150A U176A", "reverse-splicing fitness": 0.0322}
{"var": "C82G A120G A145G C150G C169G U176G", "reverse-splicing fitness": 0.00567}
{"var": "A111U A120U A145G C169A", "reverse-splicing fitness": 0.00419}
{"var": "C82U A111C A120G A145U C150U C169A U176A", "reverse-splicing fitness": 0.0111}
{"var": "C82U A111C A120G A145C C150U", "reverse-splicing fitness": 0.00818}
{"var": "C82A A111G A120G A145C C150G C169G", "reverse-splicing fitness": 0.00751}
{"var": "C82G A111G A145G C150A C169U U176C", "reverse-splicing fitness": 0.0162}
{"var": "C82U A111G A120U A145C C150G", "reverse-splicing fitness": 0.00671}
